The reported numbers originate from PubChem BioAssay (NCATS).

assay: BET inhibitor-based combinations targeting novel dependencies in MECOM-rearranged (r) AML: MV-4-11 cell line (AID 2202233); settings: MV-4-11 AML viability, CellTiter-Glo luminescence, 48 h; series mostly up to 46 µM; also: nearly all actives have a fitted effect of over 45% in size
Inconclusive results are not listed. The source made the active and inactive calls. Calls follow the shape of the dose curve; as a rule, active = well fitted inhibition curve with a large enough effect; inconclusive = small, poorly fitted or top-dose-only effect; inactive = no such curve, though single readings can be large or run the other way.
Please state which outcome applies, choosing from active, inactive

Q: Tell me the recorded outcome of this test for COc1ccc(-c2c(-c3ccc(O)cc3O)n[nH]c2C)cc1 .
A: inactive

Q: Tell me the recorded outcome of this test for N=c1ccn2c(n1)O[C@H]1[C@@H](O)[C@@H](CO)O[C@H]12 .
A: active

Q: Tell me the recorded outcome of this test for COc1cccc(-c2cc(F)ccc2C2Cc3nc(N)nc(C)c3C(=O)N2)n1 (stereo not given) .
A: active

Q: Tell me the recorded outcome of this test for O=C(NCCCNc1nc(Nc2cccc(NC(=O)N3CCCC3)c2)ncc1I)c1cccs1 .
A: active

Q: Tell me the recorded outcome of this test for CCn1c(C(=O)N(C2CC2)C2CC2)cc2c3c(ncn3C)c(Nc3cc(C)n(C)n3)nc21 .
A: active

Q: Tell me the recorded outcome of this test for CC(=O)Nc1ccc([C@H](C)C(=O)Nc2ncc(C(C)C)s2)cc1 .
A: active

Q: Tell me the recorded outcome of this test for COc1cc(C(=O)N2CCC(N3CCN(C)CC3)CC2)ccc1Nc1ncc2c(n1)N(C)c1ccccc1C(=O)N2C .
A: active

Q: Tell me the recorded outcome of this test for O=c1[nH]cnc2[nH]ncc12 .
A: inactive

Q: Tell me the recorded outcome of this test for COC1CCC(C(=O)c2ccc3nc4c(cc3c2)CCCO4)CC1 (stereo not given) .
A: inactive

Q: Tell me the recorded outcome of this test for CC(C)c1ccc2c(c1)c(SC(C)(C)C)c(CC(C)(C)C(=O)O)n2Cc1ccc(Cl)cc1 .
A: active

====

target: Retinaldehyde dehydrogenase 3 (Homo sapiens) (UniProt P47895); assay: qHTS for Inhibitors of the Aldehyde Dehydrogenase Family (ALDH1A3) Primary screen (AID 2061315); conditions: ALDH inhibition qHTS; series mostly up to 56 µM;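 also: plate controls were DMSO vehicle for no effect and reference inhibitor for full effect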
Inconclusive results are not listed. The source made the active and inactive calls. Calls come from the whole dose curve; as a rule, active = well fitted inhibition curve with a large enough effect; inconclusive = small, poorly fitted or top-dose-only effect; inactive = no such curve, though single readings can be large or run the other way.

compound: COc1ccc(C2Nc3ccccc3C(=O)N2CC(C)(C)C)cc1COc1ccc(NC(C)=O)cc1 (stereo not drawn)
systemName: Retinaldehyde dehydrogenase 3 (Homo sapiens) (UniProt P47895)
activity change, negative = inhibition: inactive
--
compound: C/C=C/C=C/C(O)=C1\C(=O)[C@]2(C)C3C(C(=O)CC/C=C/C)=C(O)C4(C)C1[C@]1(C)O[C@@]4(O)[C@@]3(C)O[C@@]12O
systemName: Retinaldehyde dehydrogenase 3 (Homo sapiens) (UniProt P47895)
activity change, negative = inhibition: inactive
--
compound: CC1(C)CC[C@]2(C(=O)O[C@@H]3O[C@H](CO)[C@@H](O)[C@H](O)[C@H]3O)CC[C@]3(C)C(=CCC4[C@@]5(C)C[C@H](O)[C@H](O[C@@H]6OC[C@@H](O)[C@H](O)[C@H]6O)[C@@](C)(CO)C5CC[C@]43C)C2C1 (stereo partly drawn)
systemName: Retinaldehyde dehydrogenase 3 (Homo sapiens) (UniProt P47895)
activity change, negative = inhibition: inactive

====

target: Aldehyde dehydrogenase, mitochondrial (Homo sapiens); experiment: qHTS for Inhibitors of the Aldehyde Dehydrogenase Family (ALDH2) Primary screen (AID 2061308); details: ALDH2 enzyme inhibition qHTS, 1536-well; series mostly up to 56 µM;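 also: plate controls were vehicle for no effect and reference inhibitor for full effect; nearly all actives have a fitted effect of over 55% in size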
Results filed as inconclusive are left out. Calls of active or inactive are those of the source. Calls come from the whole dose curve; as a rule, active = well fitted inhibition curve with a large enough effect; inconclusive = small, poorly fitted or top-dose-only effect; inactive = flat fitted curve, though single readings scatter.
resultType: activity change, negative = inhibition

molecule: CC(C)=CCc1cc(O[C@@H]2O[C@H](CO[C@@H]3OC[C@](O)(CO)[C@H]3O)[C@@H](O)[C@H](O)[C@H]2O)ccc1O
activity change, negative = inhibition: inactive
--
molecule: C/C=C(\C)C(=O)OC[C@H]1O[C@@H](O[C@H]2[C@@H](O[C@H]3O[C@H](COC(=O)/C(C)=C/C)[C@@H](O)[C@H](O)[C@H]3O[C@@H]3O[C@H](COC(=O)/C(C)=C/C)[C@@H](O)[C@H](OC(=O)/C(C)=C/C)[C@H]3O)O[C@H](COC(=O)/C(C)=C/C)[C@@H](O)[C@@H]2O)[C@H](O)[C@@H](O)[C@@H]1O
activity change, negative = inhibition: inactive
--
molecule: C=C1C(OC(C)=O)CCC2(C)CCC(C(C)(C)O)CC12 (centres undefined)
activity change, negative = inhibition: inactive
--
molecule: Cc1cc(Cl)ccc1COc1ccnn1-c1cc(C(=O)O)ccn1
activity change, negative = inhibition: inactive

Reported activity change, negative = inhibition ( Cc1ccc(F)cc1C(=O)Nc1ccc(C(=O)N2Cc3cccn3Cc3ccccc32)c(Cl)c1 ) = inactive

Reported activity change, negative = inhibition ( CC(C)=CCCC1(C)Oc2cc3c(c4c2C2C(O4)C(C)(O)CCC21)CN(C(CCC(=O)O)C(=O)O)C3=O (centres undefined) ) = inactive

====

biological target: Retinal dehydrogenase 2 (Homo sapiens) (UniProt O94788); assay: qHTS for Inhibitors of the Aldehyde Dehydrogenase Family (ALDH1A2) Confirmation screens (AID 2061314); conditions: ALDH1A2 enzyme inhibition qHTS confirmation; series mostly up to 45.9 µM; also: nearly all actives have a fitted effect of over 65% in size; also: potency is read from the fitted curve at half-maximal effect
Records with an inconclusive call do not appear. Active and inactive are the calls of the source. Calls come from the whole dose curve; as a rule, active = well fitted inhibition curve with a large enough effect; inconclusive = small, poorly fitted or top-dose-only effect; inactive = no such curve, though single readings can be large or run the other way.
resultType: Potency

Below are worked cases with known answers.
compoundStructureString: Oc1ccc(Oc2ccccc2F)c2cccnc12
Potency: 2.01 µM (active)
--
compoundStructureString: COc1cccc(CNC(=O)Nc2nc(-c3ccncc3)cs2)c1
Potency: 5.65 µM (active)
--
compoundStructureString: CC(C)(C)OC(=O)N1CCN(c2cnc(NCc3ccc(-c4ccc(C#N)cc4)o3)nc2)CC1
Potency: 8.96 µM (active)
--
compoundStructureString: CN(C)CCCCCCNC(=O)c1cccc(-c2cc(O)c3ncccc3c2)c1
Potency: inactive

Noted Potency for Brc1ccc(-c2csc(N3CCC(c4nn[nH]n4)CC3)n2)cc1 , tested on Retinal dehydrogenase 2 (Homo sapiens) (UniProt O94788): inactive

Noted Potency for N#Cc1ccc(C(=O)N2CCC3(CC2)N=C(N)c2c(F)ccc(F)c2N3)cn1 , tested on Retinal dehydrogenase 2 (Homo sapiens) (UniProt O94788): inactive

Noted Potency for COc1ccc(C2=Nn3c(nnc3-c3ccccc3O)SC2)cc1 , tested on Retinal dehydrogenase 2 (Homo sapiens) (UniProt O94788): inactive

====

biological target: Aldehyde dehydrogenase, mitochondrial (Homo sapiens); test: qHTS for Inhibitors of the Aldehyde Dehydrogenase Family (ALDH2) Primary screen (AID 2061308); conditions: ALDH2 enzyme inhibition qHTS, 1536-well; series mostly up to 56 µM;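 also: plate controls were vehicle for no effect and reference inhibitor for full effect; nearly all actives have a fitted effect of over 55% in size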
Inconclusive results are not listed. Calls of active or inactive are those of the source. The call rests on the fitted dose curve; in most records, active means well fitted inhibition curve with a large enough effect; inconclusive means small, poorly fitted or top-dose-only effect; inactive means flat fitted curve, though single readings scatter.

compound: FC(F)(F)c1ccc(Nc2nc(-c3c(C(F)(F)F)nc4ccccn34)cs2)cc1
activity change, negative = inhibition: inactive
//
compound: CC(=O)N[C@H]1[C@H](O[C@H]2CC[C@]3(C)C4CC=C5[C@@H]6CC(C)(C)CC[C@]6(C(=O)O)[C@H](O)C[C@@]5(C)[C@]4(C)CC[C@H]3C2(C)C)O[C@H](CO)[C@@H](O)[C@@H]1O (some centres undefined)
activity change, negative = inhibition: inactive
//
compound: Cc1cc(C(C)(C)C)c(O)c(C)c1CC1=NCCN1
activity change, negative = inhibition: inactive
//
compound: C/C=C(/C)C(=O)OC1C(OC(C)=O)C23C(O)OC4(CCC5C6(C)CCC(OC7OC(C(=O)O)C(O)C(OC8OC(CO)C(O)C(O)C8OC8OC(C)C(O)C(O)C8OC8OCC(O)C(O)C8O)C7OC7OC(CO)C(O)C(O)C7O)C(C)(C)C6CCC5(C)C4(C)CC2OC(C)=O)C3CC1(C)C (centres undefined)
activity change, negative = inhibition: 23.8% [at 11.2 µM] (inactive)

====

Please provide measured activation for the entries that follow.
molecular target: Cellular tumor antigen p53 (Homo sapiens); assay: Primary qHTS for small molecule compounds that upregulate eGFP-tagged delta133p53alpha (in N-terminal) cells. (AID 2060322); conditions: NCI-H358 eGFP-delta133p53alpha fluorescence, 24 h; hits give high values;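 also: cells pre-induced with doxycycline then dosed without doxycycline; 0% = DMSO vehicle and 100% = reference activator; nearly all actives have a fitted effect of over 75% in size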
Inconclusive results are not listed.
// return numeric value only (unit: %, not printed)

Reported activation ( C[C@H]1CC[C@@]2(OC1)O[C@H]1CC3C4CC[C@H]5C[C@@H](O)[C@H](O)C[C@]5(C)C4=CC(=O)[C@]3(C)[C@H]1[C@@H]2C (some centres not stated) ) = 14.3

Reported activation ( C=CCc1ccc(O[C@@H]2O[C@H](CO)[C@@H](O)[C@H](O)[C@H]2O)c(OC)c1 ) = -19.6

Reported activation ( CC(C)c1ccccc1OC(=O)NCCc1ccc2ccccc2c1 ) = 2.39

Reported activation ( CCOC(=O)/C=C(C)/C=C/C=C(C)/C=C/c1c(C)cc(OC)c(C)c1C ) = 9.6

Reported activation ( CCC(CCO[C@@H]1O[C@H](CO[C@H]2OC[C@](O)(CO)[C@H]2O)[C@@H](O)[C@H](O)[C@H]1O)C(C)(C)O (some centres not stated) ) = -6.87

Reported activation ( C=C1CC[C@H]2[C@@](C)(CCC(O)[C@@]2(C)CO)[C@@H]1/C=C/C(=C\C(=O)O)C(=O)O (some centres not stated) ) = -2.29

Reported activation ( C=C1Cc2c(Cl)cc3[nH]c4c5c3c2[C@@]2(O)[C@@H]1C[C@@H]2C(C)(C)O[C@H]5C1CC[C@@]2(O)[C@@]35O[C@@H]3[C@H]3OC(C)(C)[C@H]3O[C@H]5CC[C@]2(C)[C@@]41C (some centres not stated) ) = -14.5

Reported activation ( Cc1cn([C@@H]2C[C@@H](O)[C@H](CO)O2)c(=O)[nH]c1=O ) = -12.7

Reported activation ( C=C1CC[C@@H]2[C@](C)(CO[C@@H]3O[C@H](CO)[C@@H](O)[C@H](O)[C@H]3O)[C@H](O)CC[C@@]2(C)[C@@H]1C/C=C1/C(=O)OC[C@H]1O ) = -8.93

Reported activation ( COc1cc([C@H]2OC[C@@H]3[C@@H](c4ccc(O[C@@H]5O[C@H](CO)[C@@H](O)[C@H](O)[C@H]5O)c(OC)c4)OC[C@]23O)ccc1O ) = 3.57

Reported activation ( c1cc(CN2CCCNCCNCCCNCC2)ccc1CN1CCCNCCNCCCNCC1 ) = 39.7

Reported activation ( Nc1nc2c(ncn2[C@@H]2O[C@H](CO)[C@@H](O)[C@H]2O)c(=O)[nH]1 ) = -1.43

Reported activation ( CC1(C)C(=O)N2c3ccccc3[C@]3(CC(n4cnc5ccccc5c4=O)C(=O)O3)[C@H]2N1O (some centres not stated) ) = 1.53

Reported activation ( Nn1nnc2ccccc21 ) = 15.1

Reported activation ( COc1cc([C@H]2OC[C@](O)(Cc3ccc(O[C@@H]4O[C@H](CO)[C@@H](O)[C@H](O)[C@H]4O)c(OC)c3)[C@@H]2CO)ccc1O ) = -1.53

Reported activation ( NC1CCN(O)C1=O (configuration not stated) ) = -20

Reported activation ( O=C1O[C@H](CO)[C@@H](O)[C@H](O)[C@H]1O ) = 6.69
